System: NCI-H226 lung
Test: NCI tumour cell line growth inhibition, 48 h; in the data active = GI50 below about 0.43 µM; inactive = the rest
Output constraint: value belongs to active, inactive

Consider the following illustrative entries.
                                   compound  category_label
0  CCOc1ccn(-c2ccc(F)cc2)c(=O)c1C(=O)Nc1ccc(Oc2ccnc(N)c2Cl)c(F)c1        inactive
1  O=C(NCC1CCCO1)c1ccc(NC2=C(Cl)C(=O)N(Cc3ccccc3)C2=O)cc1 (stereo not drawn)        inactive
2  CCN(CC)CCCC(C)N/C(=C1\C(=O)NC(=O)\C1=C(/NC(C)CCCN(CC)CC)c1cccc(OC)c1)c1cccc(OC)c1 (stereo not drawn)        inactive
3  Clc1ccccc1-c1nnc2c(Cc3ccccc3)nc3ccccc3n12        inactive
4  CN1CCN(C(=O)COc2ccc(/C=C3\CC4C5CC=C6CC(Cl)CCC6(C)C5CCC4(C)C3=O)cc2)CC1 (stereo not drawn)        inactive
5        CCN(Cc1cccc(Cl)c1)c1ccc(CO)c(Cl)c1          active
6  COc1cc(C(=O)c2cnc(-c3cccc4[nH]ccc34)[nH]2)cc(OC)c1OC          active

Field: next compound
How was C=CCC(N[C@@H](CO)c1ccccc1)c1cn(C(=O)OCC)c2ccccc12 (stereo partly drawn) classified in this test? inactive
